test system: E. coli; assay: MIC against gram-negative bacteria; assay type: cell-based; settings: Escherichia coli, E. coli AG09, AAC(6′)-1B, resistance mechanism AAC(6′); read-out: MIC
measurement.label: MIC

chemical.string: NC[C@H]1O[C@H](O[C@H]2[C@H](O)[C@@H](O[C@H]3O[C@H](CO)[C@@H](O)[C@H](N)[C@H]3O)[C@H](N)C[C@@H]2N)[C@H](O)[C@@H](O)[C@@H]1O
target.of.assay: E. coli
measurement.label: MIC
measured.result: 256 to 512 µg/mL
//
chemical.string: NC[C@@H]1O[C@H](O[C@H]2[C@@H](O)[C@H](O[C@@H]3[C@@H](O)[C@H](N)C[C@H](N)[C@H]3O[C@H]3O[C@H](CO)[C@@H](O)[C@H](O)[C@H]3N)O[C@@H]2CO)[C@H](N)[C@@H](O)[C@@H]1O
target.of.assay: E. coli
measurement.label: MIC
measured.result: 8 to 16 µg/mL
//
chemical.string: NC[C@H]1O[C@H](O[C@H]2[C@H](O)[C@@H](O[C@H]3O[C@H](CO)[C@@H](O)[C@H](N)[C@H]3O)[C@H](N)C[C@@H]2N)[C@H](N)C[C@@H]1O
target.of.assay: E. coli
measurement.label: MIC
measured.result: 64 to 128 µg/mL

----------
tested on: E. coli; assay: MIC against gram-negative bacteria; type: cell-based; conditions: Escherichia coli, E. coli AG08, BM13/pIP055, resistance mechanism ANT(2″); read-out: MIC
Collected MIC values appear next to each entry.

chemical.string: NC[C@H]1O[C@H](O[C@H]2[C@H](O)[C@@H](O[C@H]3O[C@H](CO)[C@@H](O)[C@H](N)[C@H]3O)[C@H](N)C[C@@H]2N)[C@H](O)[C@@H](O)[C@@H]1O
MIC: 16 to 128 µg/mL
--
chemical.string: NC[C@H]1O[C@H](O[C@H]2[C@H](O)[C@@H](O[C@H]3O[C@H](CO)[C@@H](O)[C@H](N)[C@H]3O)[C@H](N)C[C@@H]2N)[C@H](N)C[C@@H]1O
MIC: 8 to 64 µg/mL
--
chemical.string: NC[C@@H]1O[C@H](O[C@H]2[C@@H](O)[C@H](O[C@@H]3[C@@H](O)[C@H](N)C[C@H](N)[C@H]3O[C@H]3O[C@H](CO)[C@@H](O)[C@H](O)[C@H]3N)O[C@@H]2CO)[C@H](N)[C@@H](O)[C@@H]1O
MIC: 4 to 8 µg/mL
